tested on: LOX IMVI melanoma; experiment: NCI-60 one-dose screen, 48 h; conditions: 10 µM unless noted
This is part of a sample that, as a whole, favours compounds with a hit. Of some 83,000 tested, about 20% had one in any assay. Active and inactive are the calls of the source. Rule for the calls: active = growth percent below 10; inactive = the rest.
Permitted responses: yes = active, no = inactive

How was COc1cc(C)cc2oc3oc(=N)c(C(=O)c4ccccc4)cc3c(=O)c12 classified in this test?
no

Lab log entry: N#Cc1c(Cl)nc(SCC2CO2)nc1-c1ccccc1 (centres undefined) — outcome as called in the assay?
no

Hey, what did the test say about CCN(CC)CCCNCc1cc(-c2ccccc2)nc2ccccc12 ?
yes

What was the test verdict on C1=C[C@H]2O[C@@H]1c1ccc3[nH]ccc3c12 ?
no

Returns: the outcome recorded for CC1=CC[C@@H]2C(C)(C)[C@@H](O)CC[C@@]2(C)[C@@H]1COc1ccc2ccc(=O)oc2c1 in this assay.
no

# fetch the recorded call for CCOC(=O)C(C(C)=O)c1nc2sc3cc(Cl)c(Cl)cc3n2c(=O)c1C#N (centres undefined) here
no

Call for entry COc1ccc(CC(C#N)c2ccc(Cl)cc2)cc1 (centres undefined) :
no

Entry CCOC(CNC(=O)c1cccc([N+](=O)[O-])c1)OCC : call = ?
no

// outcome(item) with item = CC1(C)CC[C@]23CC[C@]4(C)[C@H](CC[C@@H]5[C@@]6(C)C/C(=C/c7ccncc7)C(=O)C(C)(C)[C@@H]6CC[C@]54C)[C@H]2[C@H]1OC3=O
no

###

test system: NCI-H322M lung; test: NCI-60 one-dose screen, 48 h; conditions: 10 µM unless noted
The panel holds about 83,000 compounds, 20% with a hit somewhere; the sample as a whole holds those more often. Activity calls are given as the source filed them. Rule for the calls: active = growth percent below 10; inactive = the rest.
Answer with one of the outcomes given here: T = active, F = inactive

Given Cc1c(Cn2cc(COc3ccc(Br)cc3)nn2)c(C)c(Cn2cc(COc3ccc(Br)cc3)nn2)c(C)c1Cn1cc(COc2ccc(Br)cc2)nn1 , state the outcome it received in this test.
F

Recorded call for Cn1cc(-c2noc(-c3cn(C)c4ncc(F)cc34)n2)c2cc(Br)ccc21 ?
F

Hello, I am checking results. What call was entered for COc1ccc(C=C2c3ccccc3-c3ccccc32)cc1 ?
F

What did this assay record as the result for Cc1ccc(C2=C/C(=C/c3ccc(Br)cc3)C(=O)N2CCc2ccc(S(N)(=O)=O)cc2)cc1 ?
F

Returns: the outcome recorded for Cn1cc(-c2nnc(-c3cn(C)c4ncc(Br)cc34)s2)c2cc(Br)ccc21 in this assay.
F

// param item: O=C(CSc1nc2ccc([N+](=O)[O-])cc2[nH]1)Nc1ccc(F)c(Cl)c1 ; yields the recorded call
F

Dear all, I need the recorded test outcome for O=C1NC(=O)C(Cc2ccccc2)(Cc2ccccc2)N1 , thank you.
F

Identify the outcome logged in this assay for the compound shown: CCN1c2ccccc2C(Cl)(c2ccc(N(C)C)cc2)c2ccccc21
F

I would be grateful if you could indicate the recorded call for C#CC(OC(=O)N(C)C)(c1ccccc1)c1ccc(F)cc1 (centres undefined) .
F

Status in this test for O=C(N/N=C1\c2ccccc2-c2cccc(C(=O)O)c21)c1ccc(O)cc1 ?
F

What did this assay record as the result for O=C(OCc1ccc2c(Cl)cc(Cl)c(O)c2n1)N1CCN(C(=O)c2cc3cc(F)ccc3[nH]2)CC1 ?
F

Test call for this compound, please: C[n+]1c2ccccc2nc2c(N)cc(N)cc21
F

// outcome(item) with item = NNC(=O)c1ccc(C(=O)NN)cc1
F

Which outcome was assigned to Nc1cc(Cl)cc2cccnc12 in this test?
F

I'd appreciate the recorded outcome for CC(C)CCNCC(C)(C)O from this test.
F

I'd appreciate the recorded outcome for CC1(C)CC[C@]2(C(N)=O)CC[C@]3(C)C(=CC[C@@H]4[C@@]5(C)C/C(=C/c6ccncc6)C(=O)C(C)(C)[C@@H]5CC[C@]43C)[C@@H]2C1 from this test.
T

How was CC(C)CSc1ncnc2nc[nH]c12 classified in this test?
F

Give the logged outcome of this assay for the following compound: COc1cc(C)cc2oc3oc(=O)c(-c4nc5ccccc5s4)cc3c(=O)c12
F

What outcome does the record of this test show for C=C(C)[C@@H]1CC[C@]2(C)[C@H](C(=O)C=C3[C@@H]4C[C@](C)(C(=O)N5CCN(C)CC5)CC[C@]4(C)CC[C@]32C)[C@@]1(C)CCC#N ?
T

Lab log entry: CCN(CC)CCS(=O)(=O)CCNc1ccnc2cc(Cl)ccc12 — outcome as called in the assay?
F

Test call, this compound: O=C1COCCN1c1ccc(NCc2cn(Cc3cccc4ccccc34)c3ccccc23)cc1
F

How was Cn1cc(-c2noc(C(=O)c3cn(C)c4ncc(Br)cc34)n2)c2ccccc21 classified in this test?
F

Outcome logged for C#C[C@]1(O)CC[C@H]2[C@@H]3CC=C4c5nc(N)sc5CC[C@]4(C)[C@H]3CC[C@@]21C in this assay:
F

Please let me know the test result on file for CC(C)=CC/C=C(/C)[C@H]1CC[C@]2(C)[C@@H]1CC[C@@H]1[C@@]3(C)CCC(=O)NC(C)(C)[C@@H]3CC[C@]12C .
F

Fill in: this test's call for O=c1[nH]cnc2c1ccn2C1OC(CO)C(O)C1O (centres undefined) is ___
F

State the result this test recorded for C=C(C)[C@@H]1CC[C@]2(C(=O)N3CCN(C)CC3)CC[C@]3(C)[C@H](CC[C@@H]4[C@@]5(C)C/C(=C/c6ccncc6)[C@H](O)C(C)(C)[C@@H]5CC[C@]43C)[C@@H]12 .
T

What did the test return for O=S(=O)(/N=c1/n(-c2ccccc2)nc2n1CCN2C1=NCCN1)c1ccc(-c2ccccc2)cc1 ?
F

Hi team, can someone confirm the assay call for N#C/C(C(=O)c1ccccc1)=C1/C(=O)Nc2ccc(Br)cc21 ?
F

Recorded test call requested for C=CCc1nc2ccccc2s1
F

Query: recorded result category for CC(=O)CC(=O)SC1=NCCS1 in this test
F

Returns: the outcome recorded for CCN1CCN(CC(=O)Nc2nc3ccc(NCc4ccc(Cl)cc4)cc3s2)CC1 in this assay.
F

Hi, sorry to bother you, what did the test record for Cc1cc(SC#N)ncn1 ?
F

What call does the record list for COc1cc(NCc2cn(-c3ccc(C(=O)O)cc3)nc2-c2ccc(C(=O)O)cc2)cc(OC)c1OC ?
F

Record request — test call for COc1ccc(/C=C(/C(=O)c2ccc(Cl)cc2)C(=O)C(F)(F)F)cc1
F
